# Test system: Pseudomonas aeruginosa
# measurementDescription: Antimicrobial activity against Pseudomonas aeruginosa isolated from patient by broth microdilution method
Examples of compounds with documented Activity follow.
observedProperty: Activity (%)

compound: CO/N=C(\C(=O)N[C@@H]1C(=O)N2C(C(=O)[O-])=C(C[N+]3(C)CCCC3)CS[C@H]12)c1csc(N)n1
unitsOfMeasure: %
value: 8.2
//
compound: C[C@@H](O)[C@H]1C(=O)N2C(C(=O)O)=C(S[C@@H]3CN[C@H](C(=O)N(C)C)C3)[C@H](C)[C@H]12
unitsOfMeasure: %
value: 3.7
//
compound: CC(C)(O/N=C(\C(=O)N[C@@H]1C(=O)N2C(C(=O)[O-])=C(C[n+]3ccccc3)CS[C@H]12)c1csc(N)n1)C(=O)O
unitsOfMeasure: %
value: 2.3
//
compound: C[C@@H](O)[C@H]1C(=O)N2C(C(=O)O)=C(SCCNC=N)C[C@H]12 [IMIPENEM ANHYDROUS]
unitsOfMeasure: %
value: 7.9

====

# System: Pseudomonas aeruginosa
# measurementDescription: Antimicrobial activity against Ceftazidime non-susceptible Pseudomonas aeruginosa assessed as susceptible isolate by broth microdilution method
# Assay type: functional
observedProperty: Activity (%)

compound: C[C@@H](O)[C@H]1C(=O)N2C(C(=O)O)=C(S[C@@H]3CN[C@H](CNS(N)(=O)=O)C3)[C@H](C)[C@H]12
value: 60.9
//
compound: C[C@@H](O)[C@H]1C(=O)N2C(C(=O)O)=C(S[C@@H]3CN[C@H](C(=O)N(C)C)C3)[C@H](C)[C@H]12
value: 60.9
//
compound: C[C@@H](O)[C@H]1C(=O)N2C(C(=O)O)=C(SCCNC=N)C[C@H]12 [IMIPENEM ANHYDROUS]
value: 55.5
//
compound: CC(C)(O/N=C(\C(=O)N[C@@H]1C(=O)N2C(C(=O)[O-])=C(C[n+]3ccccc3)CS[C@H]12)c1csc(N)n1)C(=O)O
value: 0
//
compound: CO/N=C(\C(=O)N[C@@H]1C(=O)N2C(C(=O)[O-])=C(C[N+]3(C)CCCC3)CS[C@H]12)c1csc(N)n1
value: 25.5

====

# Tested on: Escherichia coli
# measurementDescription: Antimicrobial activity against Non-ESBL Escherichia coli assessed as susceptible isolate by broth microdilution method
# Assay type: functional
observedProperty: Activity (%)

compound: C[C@@H](O)[C@H]1C(=O)N2C(C(=O)O)=C(S[C@@H]3CN[C@H](C(=O)N(C)C)C3)[C@H](C)[C@H]12
testedOn: Escherichia coli
value: 100
--
compound: CO/N=C(\C(=O)N[C@@H]1C(=O)N2C(C(=O)O)=C(CSc3nc(=O)c(O)nn3C)CS[C@H]12)c1csc(N)n1
testedOn: Escherichia coli
value: 98.7
--
compound: CO/N=C(\C(=O)N[C@@H]1C(=O)N2C(C(=O)[O-])=C(C[N+]3(C)CCCC3)CS[C@H]12)c1csc(N)n1
testedOn: Escherichia coli
value: 99.8
--
compound: CC(C)(O/N=C(\C(=O)N[C@@H]1C(=O)N2C(C(=O)[O-])=C(C[n+]3ccccc3)CS[C@H]12)c1csc(N)n1)C(=O)O
testedOn: Escherichia coli
value: 98.6
--
compound: C[C@@H](O)[C@H]1C(=O)N2C(C(=O)O)=C(SCCNC=N)C[C@H]12 [IMIPENEM ANHYDROUS]
testedOn: Escherichia coli
value: 100
--
compound: C[C@@H](O)[C@H]1C(=O)N2C(C(=O)O)=C(S[C@@H]3CN[C@H](CNS(N)(=O)=O)C3)[C@H](C)[C@H]12
testedOn: Escherichia coli
value: 99.8
